# Study Target: T1, 4H850-AA
# T1 chain: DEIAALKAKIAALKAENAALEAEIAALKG
# Protocol: two-hybrid library CCmax;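 also: natural log of median RNA to DNA barcode read ratio; higher means stronger binding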
# Measurement Conditions: mean of both orientations
Reported Metric: interaction score

Please review the following examples before continuing.
Prompt: Give interaction score for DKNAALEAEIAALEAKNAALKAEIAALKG [4H3130-AA]
Response: 2.04

Prompt: # return recorded interaction score for entry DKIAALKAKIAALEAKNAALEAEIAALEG [4H2865-AA]
Response: 0.586

P. DKNAALKAKIAALEAENAALKAEIAALEG [4H3865-AA]
Q. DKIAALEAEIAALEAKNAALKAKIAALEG [4H2109-AA]
Prompt: Which one would you say has the larger interaction score value: P , or Q ? API: response body contains the label of the selected item.
Response: Q
